experiment: protein stability index of a GFP-peptide fusion (GPS, HEK-293T) (PSI 1-6); higher = more stable; conditions: treatment: MLN4924 1 uM, 8 h; c terminus: a fixed tail appended;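 further: 24-mer peptide tiles fused after GFP, lentivirally expressed, FACS-sorted into six equal bins by GFP/DsRed ratio, decoded by Illumina sequencing, PSI is the read-weighted mean bin number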
Think of 3 as a floor: if protein stability index stands on it or above, it is fulfilled; beneath it, not fulfilled.

>  <Residue Codes>
WVGTGLAAALAGLVGLATAAFGHV [CPOX]

>  <Assigned Category>
not fulfilled

$$$$
>  <Residue Codes>
MIIEHKIVIADVKLVADFQRYILY [ZNF277]

>  <Assigned Category>
not fulfilled

$$$$
>  <Residue Codes>
IDEHHFVAVALRKPDGSRHQDVPS [AASDHPPT]

>  <Assigned Category>
fulfilled

$$$$

## Task Dear colleague, could you confirm whether MPCTWVMACAYAPSGCAIACGGLD [GNB5] has protein stability index at or above 3?
## Result not fulfilled

## Task Please check the record FQAHRDKYEKLRGDVAIKLKFLEE [ARFIP2] and state if its protein stability index is at or above 3.
## Result fulfilled

## Task Hello, I need to know if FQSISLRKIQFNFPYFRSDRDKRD [CLCN6] has measured protein stability index not below 3. Thanks!
## Result not fulfilled

## Task Can TDRRSFHEVREFKQLIYRVRRTDD [RIT1] be said to have protein stability index at or above 3?
## Result fulfilled

## Task Does TAEDSNDIYILPSDNSGQVSPPES [BCL2L13] have a reported protein stability index of at least 3?
## Result fulfilled

* * *

assay: protein stability index of a GFP-peptide fusion (GPS, HEK-293T) (PSI 1-6); higher = more stable; conditions: treatment: MLN4924 1 uM, 8 h; c terminus: a fixed tail appended
Measured Quantity: protein stability index
Enter a number only.

Previously resolved entries follow.
>  <Residue Codes>
KYPPDRECIYIIEAAPRQCIELYF [NETO1]

>  <protein stability index>
2.7

$$$$
>  <Residue Codes>
NVEHYQELKKMVQQSDLGQYVTFL [ALG2]

>  <protein stability index>
2.43

$$$$
>  <Residue Codes>
EVLSLGVQVPEAWEELLTMKVEAK [ZSCAN9]

>  <protein stability index>
3.45

$$$$

The reported value for MKSYSFLREAVPGILRARRGEGIQ [SOAT2] in terms of protein stability index is 2.77

The sequence listed as TPMNHQKAVNDETCKASHITSSVF [FBXO34] shows protein stability index equal to 3.77

* * *

protein stability index by entry:
assay: protein stability index of a GFP-peptide fusion (GPS, HEK-293T) (PSI 1-6); higher = more stable; conditions: treatment: DMSO; c terminus: a fixed tail appended
Lab note: jot down the number only; don't add units.

# protein stability index of RSHFLWKEPATMSWLEENVHEVLQ [TCF25] = 2.43

The reported value for ILSGKFTILNVRDPTGASIALFTA [PTPN9] in terms of protein stability index is 2.84

* * *

assay: protein stability index of a GFP-peptide fusion (GPS, HEK-293T) (PSI 1-6); higher = more stable; conditions: treatment: DMSO; c terminus: a fixed tail appended
Each entry below carries its recorded protein stability index.
Please reply with the number alone, leaving off any unit.

Below, 5 sequences whose answers are already recorded.
>  <Residue Codes>
MSRSGDRTSTFDPSHSDNLLHGLN [KLHL14]

>  <protein stability index>
4.13

$$$$
>  <Residue Codes>
IVKKPKSMQCKVILLDGSEYTCDV [EPB41L3]

>  <protein stability index>
1.93

$$$$
>  <Residue Codes>
CLLGLGSLVLILSLSYTVLIVGRI [SLC2A12]

>  <protein stability index>
3.06

$$$$
>  <Residue Codes>
HALRKKQLKRQKRDYIHSLKLLNV [FAM9B]

>  <protein stability index>
2.6

$$$$
>  <Residue Codes>
ILLKVKTEIEEELKSLDKEISEAF [BCL2L13]

>  <protein stability index>
2.75

$$$$

protein stability index recorded for this sequence, PKGWRQLAQEAEAWLNYPCFKNWD [OAS1] , is 2.72

protein stability index reported for this sequence MAAEIQPKPLTRKPILLQRMEGSQ [WDFY2] : 4.05

QYWPSRGTETHGLVQVTLLDTVEL [PTPRD] has a reported protein stability index of 2.13

protein stability index reported for this sequence LQMEVCRLKKEEEDRIVTQNRVFA [CEP70] : 3.98

Entry EELLWRKVYYEVIQLIKTNKKHIH [SMG5] — recorded protein stability index = 2.8

The value of protein stability index measured for the sequence APRFSFNDPSGSEEADFLSAETGS [IRX6] turned out to be 5.36

Measured protein stability index of LAEIRCDLERQNQEYQVLLDVRAR [KRT34] : 3.57
